The values you see were collected from PubChem BioAssay (NCI).

system: SNB-75 CNS; test: NCI tumour cell line growth inhibition, 48 h
Label Fulfilled when TGI is at or above 30 µM; anything below gets Not fulfilled.

1) COc1ccc2oc(=O)c(-c3nc4ccccc4s3)cc2c1
Not fulfilled
2) O=C(c1ccccc1)C(c1ccccc1)C1(O)C(=O)Nc2ccc(Br)cc21 (stereo unspecified)
Fulfilled
3) O=C(O)c1cccc(F)c1C(=O)c1ccc2ccccc2c1
Fulfilled
4) COc1cc2oc(=O)cc(C)c2c(OC)c1OC
Fulfilled
5) COc1cc(/C=C/C(=O)c2ccc(SC)cc2)cc(OC)c1OC
Not fulfilled
6) C/C(=N\O)c1ccc(Nc2cc(-c3ccccc3)nc3c(O)cccc23)cc1
Fulfilled
7) Oc1ccccc1/C=N/N1C(=S)N(c2ccccc2)C(=Nc2ccccc2)C1=Nc1ccccc1
Not fulfilled
8) CC(=O)O[C@H]1CC[C@@]2(C)[C@@H](CC[C@@H]3[C@@H]2CC(=O)[C@@]2(C)[C@H]3C[C@@H]3CC(C)=CC(=O)[C@@H]32)C1
Fulfilled
9) O=[N+]([O-])c1cnccc1-n1nnc2ccccc21
Fulfilled
10) Nc1nc(=O)n(C2CC(O)C(CO)O2)c2nc(-c3ccc(-c4ccccc4)cc3)cnc12 (stereo unspecified)
Fulfilled
11) O=[N+]([O-])c1ccc(N/N=C\c2ccc(O)cc2O)nc1
Fulfilled
12) O=C1OC(/C=C/c2ccccc2)C(=O)C1=O (stereo unspecified)
Fulfilled
13) Cc1nc2ccccc2n1Cc1ccc(NC(=S)NC2CCCCC2)cc1
Fulfilled
14) CSc1c(C#N)c(=O)n(N)c2n[nH]c(C)c12
Fulfilled

* * *

tested on: SK-OV-3 ovarian; test: NCI tumour cell line growth inhibition, 48 h; in the data active means GI50 below about 0.43 µM; inactive means the rest
Labels: active, inactive

1. O=C(Nc1ccc(-n2cc(-c3ccncc3)c(-c3ccc(Cl)c(O)c3)n2)cc1)c1ccc(Cl)c(C(F)(F)F)c1
inactive
2. Clc1ccc2c(NCCCNCc3ccc4c(c3)OCO4)ccnc2c1
inactive
3. COc1ccc(-c2nn(C(=O)c3cc(OC)c(OC)c(OC)c3)c3cc(N)ccc23)cc1
active
4. COc1cc(-c2nc3cc(Cl)c(Cl)cc3[nH]2)ccc1OCC(=O)N=Nc1c(O)[nH]c2ccccc12
inactive
5. O=C1COCCN1c1ccc(NCc2cn(Cc3ccc(F)cc3)c3ccccc23)cc1
inactive

* * *

Readings of TGI for the listed molecules
system: SK-MEL-28 melanoma; test: NCI tumour cell line growth inhibition, 48 h
outcome-measure: TGI

1) Nc1c(-c2ccc(-c3c(N)[n+]([O-])c4ccccc4[n+]3[O-])cc2)[n+]([O-])c2ccccc2[n+]1[O-]
20.9 µM
2) O=[N+]([O-])c1ccc(N/N=C\c2ccc(O)cc2O)nc1
> 100 µM
3) CC(=O)Nc1ccc(C(=O)NN2C(=O)C(Cl)C2/C=C/c2ccccc2)cc1 (centres undefined)
> 100 µM
4) C[C@@H](Br)[C@@H]1CC[C@H]2c3[nH]c4ccccc4c3CCN2C1
> 100 µM
5) COc1ccc(-n2cc(-c3ccc(F)cc3)[nH]c2=O)cc1OC
> 100 µM
6) CCCCCCCCCCCCCCCc1nc(SCC(=O)O)n[nH]1
> 100 µM
7) COc1ccc(/C=C2/C(=O)C(c3ccccc3)N(c3ccccc3)C2=O)cc1OC (centres undefined)
> 10 µM
8) COc1ccc(S(=O)(=O)Nc2c(/C=C\c3cc(OC)c(OC)c(OC)c3)ccc(OC)c2O)cc1OC
> 100 µM
9) CC1(C)C(=O)C2(N)CCC1C2 (centres undefined)
> 100 µM
10) C=C(C)[C@H]1C=C[C@@H](OC(C)=O)[C@@]2(COC(C)=O)[C@H](OC(=O)CCC)[C@H]3[C@@H](OC(C)=O)[C@@H](C)C[C@]3(O)C(=O)[C@@](C)(OC(C)=O)[C@H]12
> 100 µM
11) COc1ccc(-c2c3c(n(C4OC(COC(C)=O)C(OC(C)=O)C(OC(C)=O)C4OC(C)=O)c(=S)c2C#N)CCCC3)cc1 (centres undefined)
> 100 µM
12) COc1ccc2nc3c(cc2c1)C(=O)CC(C(F)(F)F)C3 (centres undefined)
> 100 µM
13) Nc1c(C(=O)Nc2cccc3ccccc23)sc2nc3c(cc12)CCCCCC3
> 50 µM
14) CCOC(=O)C1=CN(Cc2ccccc2)C2ON=C(c3ccc(Cl)cc3)C2C1 (centres undefined)
> 71.8 µM
15) CCCCCC(=O)OC[n+]1ccc(-c2c(COC(=O)NC(C)C)c(COC(=O)NC(C)C)c3n2CCC3)cc1
> 100 µM
16) O=C(O)Cc1ccc(-n2nnc3c(=O)[nH][nH]c(=O)c32)cc1
> 100 µM
17) Cc1c(OCc2cccc3ccccc23)ccc2c(=O)cc(S)oc12
> 100 µM
18) COc1cc2oc(=O)cc(C)c2c(OC)c1OC
> 100 µM
19) COC(=O)C1=CCS(=O)(=O)C1
> 100 µM
20) c1ccc2c(c1)-c1nc3ccccc3cc1C2N1CCOCC1 (centres undefined)
> 100 µM
21) CCOc1ccc(-n2cc(-c3ccc(N(C)C)cc3)[n+]3c2CCCCC3)cc1
> 81.9 µM
22) COc1cc(-c2nc3cc(Cl)c(Cl)cc3[nH]2)ccc1OCC(=O)N=Nc1c(O)[nH]c2ccccc12
2.68 µM
23) O=C(NCCOCCO)c1ccc(O)cc1
> 100 µM
24) C=C1[C@@H]2CCC(C)(C)[C@H]1CCC(=O)[C@@H]2C(=O)OC
> 100 µM
